# measurement.target: NPM-ALK fusion protein (Homo sapiens)
# Construct: endogenous in cells; host or cells: SU-DHL-1; the other entry of the earlier key: NPM1 (P06748, Nucleophosmin)
# Sequence (Q9UM73 with tags, fused parts or gaps): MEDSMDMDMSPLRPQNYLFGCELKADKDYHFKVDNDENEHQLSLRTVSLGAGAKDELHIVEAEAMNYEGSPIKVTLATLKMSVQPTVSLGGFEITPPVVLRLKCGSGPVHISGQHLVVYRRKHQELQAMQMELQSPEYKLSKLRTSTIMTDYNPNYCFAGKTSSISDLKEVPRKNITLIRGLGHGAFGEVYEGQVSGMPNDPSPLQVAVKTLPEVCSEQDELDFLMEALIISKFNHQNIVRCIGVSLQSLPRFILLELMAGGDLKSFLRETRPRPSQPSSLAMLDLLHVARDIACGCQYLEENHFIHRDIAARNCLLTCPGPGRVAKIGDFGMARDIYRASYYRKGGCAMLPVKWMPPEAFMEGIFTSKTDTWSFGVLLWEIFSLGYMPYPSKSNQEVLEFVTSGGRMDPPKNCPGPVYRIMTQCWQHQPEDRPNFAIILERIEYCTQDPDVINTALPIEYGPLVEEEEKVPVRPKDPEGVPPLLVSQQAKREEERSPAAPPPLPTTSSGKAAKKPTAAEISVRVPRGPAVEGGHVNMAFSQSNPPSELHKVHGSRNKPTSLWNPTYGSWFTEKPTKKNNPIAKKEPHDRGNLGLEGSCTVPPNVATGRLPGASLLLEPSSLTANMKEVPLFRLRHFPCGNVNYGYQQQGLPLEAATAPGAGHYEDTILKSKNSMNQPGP
# protocol.details: Western blot of NPM-ALK fusion protein levels in SU-DHL-1 cells
# Format: cell-based
# condition.notes: SU-DHL-1 cells, 1, 3, 10, 30 or 100 nM, 16 h
# Method: Cells were cultured in a 37° C. incubator with 5% CO2. Cells were washed with cold PBS once and lysed in 1× Laemmli loading buffer directly. […] SU-DHL-1 cells were seeded in 12-well plates at a density of 4×10^5/mL and treated with DMSO or indicated serial dilutions of compounds for 16 h. The NPM-ALK fusion protein levels were determined by Western blot and normalized against GPADH (right panel).
readout.name: effect on NPM-ALK fusion protein levels, concentration dependence

{"compound": "Cc1cc(Nc2ncc(Cl)c(Nc3ccccc3S(=O)(=O)C(C)C)n2)c(OC(C)C)cc1C1CCN(CC(=O)NCCNc2cccc3c2C(=O)N(C2CCC(=O)N(C)C2=O)C3=O)CC1 (centres unmarked)", "measurement.target": "NPM-ALK fusion protein (Homo sapiens)", "measurement": "no significant effect"}
{"compound": "Cc1cc(Nc2ncc(Cl)c(Nc3ccccc3S(=O)(=O)C(C)C)n2)c(OC(C)C)cc1C1CCN(CC(=O)NCCOCCOCCOCCOCCOCCNc2cccc3c2C(=O)N(C2CCC(=O)N(C)C2=O)C3=O)CC1 (centres unmarked)", "measurement.target": "NPM-ALK fusion protein (Homo sapiens)", "measurement": "no significant effect"}
{"compound": "Cc1cc(Nc2ncc(Cl)c(Nc3ccccc3S(=O)(=O)C(C)C)n2)c(OC(C)C)cc1C1CCNCC1 [ceritinib, reference compound]", "measurement.target": "NPM-ALK fusion protein (Homo sapiens)", "measurement": "no significant effect"}

Value source: patent US20210283261A1
